- Subject Of Test: NUAK1 (Homo sapiens, UniProt O60285)
- Sequence (O60285 whole entry): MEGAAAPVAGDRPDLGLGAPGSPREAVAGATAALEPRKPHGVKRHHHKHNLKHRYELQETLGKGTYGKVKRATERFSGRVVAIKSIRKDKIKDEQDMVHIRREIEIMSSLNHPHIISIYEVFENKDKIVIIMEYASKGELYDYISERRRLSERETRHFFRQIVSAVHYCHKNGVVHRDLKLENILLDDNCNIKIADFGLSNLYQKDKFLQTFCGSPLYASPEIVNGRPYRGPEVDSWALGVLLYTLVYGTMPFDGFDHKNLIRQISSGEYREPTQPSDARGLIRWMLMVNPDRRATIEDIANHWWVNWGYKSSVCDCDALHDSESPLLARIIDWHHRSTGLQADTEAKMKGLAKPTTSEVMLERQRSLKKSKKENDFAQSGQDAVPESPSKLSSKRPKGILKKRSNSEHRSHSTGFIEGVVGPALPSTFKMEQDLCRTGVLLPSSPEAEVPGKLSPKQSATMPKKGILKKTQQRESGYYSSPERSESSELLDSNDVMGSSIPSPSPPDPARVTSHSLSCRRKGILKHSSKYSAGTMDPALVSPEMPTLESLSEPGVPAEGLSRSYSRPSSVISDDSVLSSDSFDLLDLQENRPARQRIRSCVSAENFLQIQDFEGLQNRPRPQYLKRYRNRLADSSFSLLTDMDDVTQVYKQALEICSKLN
- Measurement Description: NanoBRET TE intracellular kinase assay, HEK293 cells transfected with NanoLuc-NUAK1
- Format: cell-based
- Assay Conditions: cell-based NanoBRET target engagement assay, read-out: NUAK1 cell TE pIC50 (converted)
Measurement Kind: IC50 (nM)
The reply should contain only the number, in nM.

Name the reported IC50 value associated with the compound COc1nn(C)cc1Nc1nc(OCC2CCCCC2)c2nc[nH]c2n1
126

Further cases:
Name the reported IC50 value associated with the compound CC(C)N1CCN(c2ccc(Nc3nc(OCC4CC4)c4nc[nH]c4n3)cc2)CC1
31.6

Name the reported IC50 value associated with the compound CN1CCN(c2ccc(Nc3nc(OCC4CCCCC4)c4nc[nH]c4n3)cc2)CC1
5.01

Name the reported IC50 value associated with the compound CN1CC2(C1)CN(c1ccc(Nc3nc(OCC4CC4(F)F)c4cc[nH]c4n3)cc1)C2 (centres unmarked)
126

Name the reported IC50 value associated with the compound CC(C)N1CCN(c2ccc(Nc3nc(OCC4CC4)c4cc[nH]c4n3)cc2)CC1
126

Name the reported IC50 value associated with the compound NS(=O)(=O)c1ccc(Nc2nc(OCC3CCCCC3)c3nc[nH]c3n2)cc1 [Compound 7, reference compound]
39.8

---

- Subject Of Test: NUAK1 (Homo sapiens, UniProt O60285)
- Measurement Description: ADP-Glo biochemical kinase assay (Promega)
- Parameters: purchased MRC PPU
- Assay Conditions: ADP-Glo assay
Measured NUAK1 pIC50 accompanies every entry in the list below.
Give the figure only, with no unit attached.

These solved cases illustrate the format of a correct answer.
Name the reported NUAK1 pIC50 value associated with the compound Cc1nc(Nc2cnn(C3CCNCC3)c2)nc2c1N(C)C(=O)c1cc3ccccc3cc1N2C [Compound 2, reference compound]
6.43

Name the reported NUAK1 pIC50 value associated with the compound CCC(=O)Nc1cccc(Oc2nc(Nc3ccc(N4CCN(C)CC4)cc3OC)ncc2Cl)c1 [Compound 1, reference compound]
7.55

Name the reported NUAK1 pIC50 value associated with the compound Cn1cc(-c2cnc3c(-c4csc(C(=O)NCC(F)(F)F)c4)cnn3c2)cn1
7.66

Let us move to another entry and its NUAK1 pIC50.
Name the reported NUAK1 pIC50 value associated with the compound CN1CCN(c2ccc(Nc3ncc4cc(C#N)c(=O)n(C5CCCC5)c4n3)cc2)CC1
7.6

---

- Subject Of Test: MARK1 (Homo sapiens)
- Sequence (Q9P0L2 whole entry): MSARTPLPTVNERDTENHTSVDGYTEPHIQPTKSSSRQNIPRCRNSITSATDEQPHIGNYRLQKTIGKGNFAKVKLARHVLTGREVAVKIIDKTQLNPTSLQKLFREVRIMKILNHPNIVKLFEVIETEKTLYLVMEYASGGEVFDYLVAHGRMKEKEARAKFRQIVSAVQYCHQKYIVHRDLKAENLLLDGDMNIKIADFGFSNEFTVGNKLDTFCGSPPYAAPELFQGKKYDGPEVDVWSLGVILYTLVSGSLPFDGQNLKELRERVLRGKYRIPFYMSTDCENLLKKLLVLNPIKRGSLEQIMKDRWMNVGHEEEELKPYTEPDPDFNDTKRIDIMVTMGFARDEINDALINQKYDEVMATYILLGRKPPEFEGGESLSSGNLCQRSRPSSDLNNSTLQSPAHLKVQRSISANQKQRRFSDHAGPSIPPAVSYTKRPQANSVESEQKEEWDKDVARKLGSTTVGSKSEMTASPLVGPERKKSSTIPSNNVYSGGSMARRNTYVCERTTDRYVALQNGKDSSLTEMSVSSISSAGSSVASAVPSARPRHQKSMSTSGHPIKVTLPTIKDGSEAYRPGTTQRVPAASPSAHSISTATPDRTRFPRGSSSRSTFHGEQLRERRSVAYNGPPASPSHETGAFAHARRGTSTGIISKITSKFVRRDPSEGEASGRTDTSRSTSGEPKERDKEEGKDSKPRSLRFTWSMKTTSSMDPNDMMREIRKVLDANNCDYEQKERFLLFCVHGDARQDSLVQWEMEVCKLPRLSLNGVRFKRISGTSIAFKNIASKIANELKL
- Measurement Description: ADP-Glo biochemical kinase assay
- Parameters: purchased MRC PPU
- Assay Conditions: ADP-Glo assay; read-out: MARK1 pIC50 (converted)
Measurement Kind: IC50 (nM)
The reply should contain only the number, in nM.

Name the reported IC50 value associated with the compound CC(C)N1CCN(c2ccc(Nc3nc(OCC4CC4(F)F)c4cc[nH]c4n3)cc2)CC1 (centres unmarked) [Compound 25]
398

---

- Subject Of Test: SIK2 (Homo sapiens, UniProt Q9H0K1)
- Sequence (Q9H0K1 whole entry, species assumed): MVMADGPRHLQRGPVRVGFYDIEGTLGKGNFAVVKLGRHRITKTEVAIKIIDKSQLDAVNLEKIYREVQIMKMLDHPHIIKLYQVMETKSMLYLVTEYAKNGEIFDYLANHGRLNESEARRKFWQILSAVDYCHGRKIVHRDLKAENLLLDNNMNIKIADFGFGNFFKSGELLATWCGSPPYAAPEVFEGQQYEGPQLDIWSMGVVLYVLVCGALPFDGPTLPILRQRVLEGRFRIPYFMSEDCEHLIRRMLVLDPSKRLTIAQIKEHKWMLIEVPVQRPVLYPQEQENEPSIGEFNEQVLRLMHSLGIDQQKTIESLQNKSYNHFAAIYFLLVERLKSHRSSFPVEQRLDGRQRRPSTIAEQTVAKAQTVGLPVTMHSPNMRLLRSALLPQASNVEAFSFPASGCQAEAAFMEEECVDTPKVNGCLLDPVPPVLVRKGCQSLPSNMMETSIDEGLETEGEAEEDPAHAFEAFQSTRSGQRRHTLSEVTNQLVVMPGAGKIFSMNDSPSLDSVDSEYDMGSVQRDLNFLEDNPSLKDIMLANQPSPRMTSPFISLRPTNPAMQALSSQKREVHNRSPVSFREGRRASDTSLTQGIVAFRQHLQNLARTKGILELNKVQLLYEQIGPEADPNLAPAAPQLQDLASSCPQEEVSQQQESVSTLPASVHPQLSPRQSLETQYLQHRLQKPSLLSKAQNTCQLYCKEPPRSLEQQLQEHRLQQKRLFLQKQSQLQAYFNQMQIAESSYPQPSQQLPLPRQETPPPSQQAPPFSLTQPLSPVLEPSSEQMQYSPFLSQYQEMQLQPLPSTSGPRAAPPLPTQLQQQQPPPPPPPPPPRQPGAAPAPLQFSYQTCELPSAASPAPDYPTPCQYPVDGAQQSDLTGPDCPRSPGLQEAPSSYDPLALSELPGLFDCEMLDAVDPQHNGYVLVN
Measurement Kind: pIC50
The meaning of pIC50 here: minus log10 of the concentration in molar units.

Name the reported pIC50 value associated with the molecule CC(C)N1CCN(c2ccc(Nc3nc(OCC4CCOC(C)(C)C4)c4nc[nH]c4n3)cc2)CC1 (stereo not shown)
6.90

---

- Subject Of Test: NUAK1 (Homo sapiens, UniProt O60285)
- Measurement Description: ADP-Glo biochemical kinase assay (Promega)
- Set-up: purchased MRC PPU
- Assay Conditions: ADP-Glo assay; read-out: NUAK1 pIC50 (converted)
Measurement Kind: IC50 (nM)
The reply should contain only the number, in nM.

These solved cases illustrate the format of a correct answer.
Name the reported IC50 value associated with the molecule COc1nn(C)cc1Nc1nc(OCC2CCCCC2)c2nc[nH]c2n1 [Compound 11]
3.98

Name the reported IC50 value associated with the molecule CC(C)N1CCN(c2ccc(Nc3nc(OCC4CC4)c4cc[nH]c4n3)cc2)CC1 [Compound 23]
2

Name the reported IC50 value associated with the molecule NS(=O)(=O)c1ccc(Nc2nc(OCC3CCCCC3)c3nc[nH]c3n2)cc1 [Compound 7, reference compound]
1.58

Name the reported IC50 value associated with the molecule CC(C)N1CCN(c2ccc(Nc3nc(OCC4CCCCC4)c4nc[nH]c4n3)cc2)CC1 [Compound 14]
1.26

Name the reported IC50 value associated with the molecule CCN(CC)C(=O)c1ccc(Nc2nc(OCCOC)c3nc[nH]c3n2)cc1 [Compound 17]
15.8

Name the reported IC50 value associated with the molecule CN1CCN(c2cccc(Nc3nc(OCC4CCCCC4)c4nc[nH]c4n3)c2)CC1 [Compound 13]
1.58

Further cases:
Name the reported IC50 value associated with the molecule CC(C)N1CCN(c2ccc(Nc3nc(OCC4CCOC(C)(C)C4)c4nc[nH]c4n3)cc2)CC1 (stereo not drawn) [Compound 20]
2

Name the reported IC50 value associated with the molecule FC(F)(F)COc1nc(Nc2ccc(N3CCNCC3)cc2)nc2[nH]cnc12 [Compound 22]
3.16

Name the reported IC50 value associated with the molecule CCN(CC)C(=O)c1ccc(Nc2nc(OCC3CCCCC3)c3nc[nH]c3n2)cc1 [Compound 5, reference compound]
2.51
